System: Ruminococcus gnavus DSM 108212
ASSAY_DETAILS: fold change of 2-Phenylethylamine concentration vs plate DMSO controls (fold change (ratio)); higher = more amine produced, active = hit call of the paper (significant change in both replicates, either direction);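 for the amine columns active = adjusted P below 0.05 in both replicates with a change the same way and a mean fold change under 0.8 or over 1.25; inactive = the rest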
CONDITION_SET: incubation time: 27 h, anaerobic, 37 °C
Structures can show the parent of a compound that is named as a salt.
Labels: True = active, False = inactive

>>> cat("Nc1nc(=O)n([C@@H]2CS[C@H](CO)O2)cc1F [(-) Emtricitabine] (20 µM)")
"False"
>>> cat("CN(C)CCCN1c2ccccc2Sc2ccccc21 [Promazine hydrochloride] (20 µM)")
"False"
>>> cat("CN1CCC(=C2c3ccccc3CCc3sccc32)CC1 [Pizotifen malate] (20 µM)")
"False"
>>> cat("CN(CCOc1ccc(CC2SC(=O)NC2=O)cc1)c1ccccn1 (stereo not given) [Rosiglitazone hydrochloride] (20 µM)")
"False"
>>> cat("Cn1ccnc1S [Methimazole] (20 µM)")
"False"
>>> cat("CO[C@@H]1[C@@H](OC(N)=O)[C@@H](O)[C@H](Oc2ccc3c(O)c(NC(=O)c4ccc(O)c(CC=C(C)C)c4)c(=O)oc3c2C)OC1(C)C [Novobiocin sodium salt] (20 µM)")
"True"
>>> cat("CCN(CC)C(=O)c1ccc(O)c(OC)c1 [Ethamivan] (20 µM)")
"False"
>>> cat("Nc1nc(N)nc(-c2cc(Cl)ccc2Cl)n1 [Irsogladine maleate] (20 µM)")
"False"
>>> cat("O=C(NC1CCN(CCCCC2(C(=O)NCC(F)(F)F)c3ccccc3-c3ccccc32)CC1)c1ccccc1-c1ccc(C(F)(F)F)cc1 [Lomitapide] (20 µM)")
"False"
>>> cat("CC(=O)OCC(=O)[C@@]12OC(C)(C)O[C@@H]1C[C@H]1[C@@H]3C[C@H](F)C4=CC(=O)C=C[C@]4(C)[C@@]3(F)[C@@H](O)C[C@@]12C [Fluocinonide] (20 µM)")
"False"
>>> cat("N=C(N)NCCN1CCCCCCC1 [Guanethidine sulfate] (20 µM)")
"False"
>>> cat("CC1CCc2cc(F)cc3c(=O)c(C(=O)O)cn1c23 (stereo not given) [Flumequine] (20 µM)")
"False"
>>> cat("COC(=O)C1=C(C)NC(C)=C(C(=O)OC)C1c1ccccc1[N+](=O)[O-] [Nifedipine] (20 µM)")
"False"
>>> cat("C[C@H]1O[C@H](O[C@H]2[C@H](O)[C@@H](O)[C@@H](O[C@@H]([C@H](O)[C@@H](O)C=O)[C@H](O)CO)O[C@@H]2CO)[C@H](O)[C@@H](O)[C@@H]1N[C@H]1C=C(CO)[C@@H](O)[C@H](O)[C@H]1O [Acarbose] (20 µM)")
"False"
>>> cat("OC(Cn1cncn1)(Cn1cncn1)c1ccc(F)cc1F [Fluconazole] (20 µM)")
"False"
>>> cat("Oc1ccc2ccccc2c1N=Nc1ccccc1 [Sudan I (1-phenylazo-2-hydroxynaphthalene)] (20 µM)")
"False"
>>> cat("CC(C)(c1ccc(O)cc1)c1ccc(O)cc1 [Bisphenol A] (20 µM)")
"False"
>>> cat("CCN(CC)CCc1nc(-c2ccccc2)no1 [Oxolamine citrate salt] (20 µM)")
"False"
>>> cat("CN[C@@H]1[C@H](O[C@H]2[C@H](O[C@H]3[C@H](O)[C@@H](O)[C@H](N=C(N)N)[C@@H](O)[C@@H]3N=C(N)N)O[C@@H](C)[C@]2(O)C=O)O[C@@H](CO)[C@H](O)[C@H]1O [Streptomycin sulfate] (20 µM)")
"False"
>>> cat("Cn1c(=O)cc(N2CCC[C@@H](N)C2)n(Cc2ccccc2C#N)c1=O [Alogliptin benzoate] (20 µM)")
"False"
>>> cat("N=C(N)NCC1COC2(CCCCC2)O1 (stereo not given) [Guanadrel sulfate] (20 µM)")
"False"
>>> cat("NC(=O)c1ncn([C@@H]2O[C@H](CO)[C@@H](O)[C@H]2O)n1 [Ribavirin] (20 µM)")
"False"
>>> cat("Cc1ncc([N+](=O)[O-])n1CCO [Metronidazole] (20 µM)")
"True"
>>> cat("NS(=O)(=O)Cc1noc2ccccc12 [Zonisamide] (20 µM)")
"False"
>>> cat("Cn1c(NCCN(CCO)CCCc2ccc([N+](=O)[O-])cc2)cc(=O)n(C)c1=O [Nifekalant] (20 µM)")
"False"
>>> cat("COc1ccc([C@@H]2CC(=O)c3c(O)cc(O[C@@H]4O[C@H](CO[C@@H]5O[C@@H](C)[C@H](O)[C@@H](O)[C@H]5O)[C@@H](O)[C@H](O)[C@H]4O)cc3O2)cc1O [Hesperidin] (20 µM)")
"False"
>>> cat("CCc1cccc(CC)c1NC(=O)CN(CC(=O)O)CC(=O)O [Etifenin] (20 µM)")
"False"
>>> cat("C[C@@H](O)[C@H]1C(=O)N2C(C(=O)O)=C(SCCNC=N)C[C@H]12 [Imipenem] (20 µM)")
"True"
>>> cat("C[C@H](NCc1ccc(OCc2cccc(F)c2)cc1)C(N)=O [Safinamide] (20 µM)")
"False"
>>> cat("CC(C)(CO)[C@@H](O)C(=O)NCCCO [(D)-Panthenol] (20 µM)")
"False"
